The measurements presented in this section are drawn from patent EP4725969A1.

TARGET SYSTEM: T1, recombinant human HER2 extracellular domain protein (human, UniProt P04626 23-652)
T1 construct: range 23-652; Range is printed for the immunogen/panning protein; also called ErbB2; recombinant HER2 protein
ASSAY EXPLANATION: BLI, Protein A capture
ASSAY METRIC: kon (M⁻¹ s⁻¹)
Answer format: numeric, M⁻¹ s⁻¹ implied, no suffix.

Per the records, this binder ( Hu2126-H2K1-L71-H72b-Mu14 (antibody, IgG1, V domains shown, IgG1/Cκ; also called 7172b-Mu14; Hu2126-7172b-Mu14) VH: QVQLVQSGSELKKPGASVKVSCKASGYTFTDYSMHWVRQAPGQGLEWMGWINTGTGEPTYADDFKGRFTISRDTSKSTAYLQISSLKAEDTAVYYCVRVGRYDYAMDYWGQGTTVTVSS VL: DIQMTQSPSSLSASVGDRVTITCRASQDVYTAVAWYQQKPGKAPKLLINLASSRPTGVPSRFSGSGSGTDFTLTISSLQPEDFATYYCQQYYSTPPTFGGGTKVEIK ) has kon equal to 101000
